studyTarget: human SCD1 (Homo sapiens)
Construct: expressed in transfected cells; host or cells: yeast strain with OLE1 deleted, plasmid-borne human SCD1 (selected in SD-Ura)
assayName: Growth inhibition of yeast strain expressing human SCD1 as sole desaturase (OLE1 deleted), OD600 readout
Assay type: cell-based
conditions: yeast strain expressing human SCD1 as sole desaturase; growth (OD600) after 40 h at 30° C.; read-out: SCD1 IC50
So I've got a bunch of compounds here, and I need their pIC50 values.
Give bare numbers, as −log10 of the molar value.

>>> df
                                   compound  parametermeasured  measured
0  O=C(Nc1ccc(Cc2cccc(Cl)c2)cn1)c1ccc2nccn2c1 [Compound 155]              pIC50      4.61
1  C[C@H](O)c1ccc(C(=O)Nc2ccc(Cc3cccc(Cl)c3)cn2)cn1 [Compound 519]              pIC50      6.06
2  O=C(Nc1ccc(Cc2cc(F)cc(F)c2)cn1)c1cncc(CO)c1 [Compound 580]              pIC50      7.72
3  Cn1cc(C(=O)Nc2ccc(Cc3cccc(Cl)c3)cn2)cc(F)c1=O [Compound 128]              pIC50      6.74
4  N#Cc1nc(C(=O)Nc2ccc(Cc3cccc(F)c3)cn2)cs1 [Compound 640]              pIC50      5.49

Go through the list and state pIC50 for each entry.
1. O=C(Nc1ccc(Cc2cccc(F)c2)cn1)c1ccc(=O)n(C2CC2)n1 [Compound 75]
2. Cn1cc(C(=O)Nc2ccc(Oc3cc(F)cc(F)c3)cn2)ccc1=O [Compound 588]

[5.83, 5.21]

Count: 5. Required value per item: pIC50.
1. Cn1ccc(C(=O)Nc2ccc(Cc3cc(F)cc(F)c3)cn2)nc1=O [Compound 590]
2. Cn1cc(C(=O)Nc2ccc(COc3ccc(F)c(Cl)c3)cn2)ccc1=O [Compound 266]
3. Cn1cccc(C(=O)Nc2ccc(Cc3ccc(F)c(F)c3)cn2)c1=O [Compound 328]
4. CC(O)c1ccc(C(=O)Nc2ccc(Cc3ccc(F)c(Cl)c3)cn2)cn1 (stereo not shown) [Compound 522]
5. Cn1cccc(C(=O)Nc2ccc(Cc3cccc(Cl)c3)cn2)c1=O [Compound 330]

[4.52, 5.73, 5.75, 6.44, 6.24]

###

studyTarget: human SCD1 (Homo sapiens)
Construct: expressed in transfected cells; host or cells: yeast strain with OLE1 deleted, plasmid-borne human SCD1 (selected in SD-Ura)
Sequence (O00767 1-359): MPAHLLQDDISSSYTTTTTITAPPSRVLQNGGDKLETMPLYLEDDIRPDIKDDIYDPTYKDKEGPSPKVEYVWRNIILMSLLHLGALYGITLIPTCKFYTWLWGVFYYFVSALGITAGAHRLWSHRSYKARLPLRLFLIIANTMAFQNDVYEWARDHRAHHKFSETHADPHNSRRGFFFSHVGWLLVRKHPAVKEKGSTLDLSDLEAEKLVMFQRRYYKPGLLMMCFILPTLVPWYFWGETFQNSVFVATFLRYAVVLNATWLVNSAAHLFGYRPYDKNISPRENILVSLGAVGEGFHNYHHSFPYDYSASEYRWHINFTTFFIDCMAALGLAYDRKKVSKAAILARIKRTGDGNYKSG
assayName: Growth inhibition of yeast strain expressing human SCD1 as sole desaturase (OLE1 deleted), OD600 readout
Type: cell-based
conditions: yeast strain expressing human SCD1 as sole desaturase; growth (OD600) after 40 h at 30° C.; read-out: SCD1 IC50
parameterMeasured: IC50 (µM)
Numbers only, in µM.

                                  smilesstr  parametermeasured  measured
0   O=C(Nc1ccc(Cc2cccc(F)c2)cn1)c1coc(Cl)n1               IC50       1.3
1  O=C(Nc1ccc(Cc2cccc(F)c2)cn1)c1ncc(CO)cn1               IC50      0.01
2  O=C(Nc1ccc(COc2cccc(Cl)c2)cn1)c1ccc(=O)n(C2CC2)c1               IC50      22.5

The record that follows has no IC50 shown yet.
Name the recorded IC50 of the item Cn1cc(NC(=O)c2ccc(Cc3ccc(F)cc3)cn2)ccc1=O in your answer.
0.222

###

studyTarget: human SCD1 (Homo sapiens, UniProt O00767)
Construct: expressed in transfected cells; host or cells: yeast strain with OLE1 deleted, plasmid-borne human SCD1 (selected in SD-Ura)
assayName: Growth inhibition of yeast strain expressing human SCD1 as sole desaturase (OLE1 deleted), OD600 readout
Format: cell-based
conditions: yeast strain expressing human SCD1 as sole desaturase; growth (OD600) after 40 h at 30° C.; read-out: SCD1 IC50
pIC50: −log10 of the molar value.
// bucketize pIC50: I: < 6; II: ≥ 6 and < 7; III: ≥ 7

                                   molecule  classification
0  CC(C)(C#N)c1ccc(C(=O)Nc2ccc(Cc3cccc(Cl)c3)cn2)cn1               I

Hey, which category is Cc1ccc(C(=O)Nc2ccc(Cc3ccc(F)c(F)c3)cn2)nn1 in, do you know?
I

Assign a category based on measured pIC50 for Cn1ccc(C(=O)Nc2ccc(Cc3cc(F)cc(C#N)c3)cn2)cc1=O and give only the class name.
II

Bin? COc1cccc(Cc2ccc(NC(=O)C3=NN(C)C(=O)CC3)nc2)c1
I

For this molecule, which bin applies? CN1N=C(C(=O)Nc2ncc(Cc3ccc(Cl)cc3)s2)CCC1=O
II

// return the class label for O=C(Nc1ccc(Cc2cc(F)cc(Cl)c2)cn1)c1ccc(=O)n(C2CC2)n1
II

Tag the class for N#Cc1ccc(C(=O)Nc2ccc(COc3cccc(Cl)c3)cn2)cn1
I

Looking at CN1N=C(C(=O)Nc2ccc(Cc3cccc(Br)c3)nn2)CCC1=O , which class would you pick?
I

Which category does the recorded pIC50 put COc1cc(C(=O)Nc2ccc(Cc3cccc(F)c3)cn2)nn(C)c1=O in?
I

Could you place CNC(=O)c1ccnc(NC(=O)c2ccc(Cc3cccc(F)c3)cn2)c1 in its proper category? Many thanks.
III

###

I'd appreciate it if you could supply pIC50 values for the items below.
studyTarget: human SCD1 (Homo sapiens, UniProt O00767)
Construct: expressed in transfected cells; host or cells: yeast strain with OLE1 deleted, plasmid-borne human SCD1 (selected in SD-Ura)
assayName: Growth inhibition of yeast strain expressing human SCD1 as sole desaturase (OLE1 deleted), OD600 readout
Assay type: cell-based
conditions: yeast strain expressing human SCD1 as sole desaturase; growth (OD600) after 40 h at 30° C.; read-out: SCD1 IC50
One number for each entry, as −log10 of the molar value.

State recorded pIC50 for all listed compounds.
1. Cn1cc(C(=O)Nc2ccc(Cc3cc(Cl)cc(C#N)c3)cn2)ccc1=O
2. O=C(Nc1ccc(CC2CCCCC2)cn1)c1ccc(CO)nc1
3. O=C(Nc1ccc(Cc2cccc(F)c2)cn1)c1ccc(=O)n(C(F)F)c1
4. CCn1ccc(C(=O)Nc2ccc(Cc3cc(F)cc(Cl)c3)cn2)n1
5. O=C(Nc1ccc(Cc2cc(F)cc(F)c2)cn1)c1ccnnc1

[6.29, 8.00, 6.07, 6.85, 7.64]

Each of the following entries comes with a recorded value; kindly state pIC50 for each.
1. Cn1nc(C(=O)Nc2nc(Br)c(Cc3cccc(F)c3)s2)ccc1=O
2. CN1N=C(C(=O)Nc2ncc(Cc3cc(F)cc(Cl)c3)s2)CCC1=O
3. CCn1nc(C(=O)Nc2ncc(Cc3cccc(F)c3)s2)ccc1=O
4. NCc1ccc(C(=O)Nc2ccc(Cc3cccc(Cl)c3)cn2)cn1 [Compound 121, 2,2,2-trifluoroacetate]
5. Cn1nc(C(=O)Nc2ccc(Cc3ccc(Cl)cc3)cn2)ccc1=O
6. Cn1cc(C(=O)Nc2ccc(Cc3ccc(Cl)c(C#N)c3)cn2)ccc1=O
7. O=C(Nc1ccc(Cc2cc(F)cc(F)c2)cn1)c1ccc2nncn2c1

1: 6.01; 2: 8.00; 3: 6.36; 4: 7.70; 5: 4.77; 6: 6.66; 7: 6.64

###

Please go through the items and note down their IC50.
studyTarget: human SCD1 (Homo sapiens, UniProt O00767)
Construct: expressed in transfected cells; host or cells: yeast strain with OLE1 deleted, plasmid-borne human SCD1 (selected in SD-Ura)
assayName: Growth inhibition of yeast strain expressing human SCD1 as sole desaturase (OLE1 deleted), OD600 readout
Format: cell-based
conditions: yeast strain expressing human SCD1 as sole desaturase; growth (OD600) after 40 h at 30° C.; read-out: SCD1 IC50
One number for each entry, in nM.

>>> df
                                  smilesstr  unitannotation  measured
0  Cn1cccc(C(=O)Nc2ccc(Cc3cccc(F)c3)cn2)c1=O              nM       290
1   O=C(Nc1ccc(Cc2cccc(F)c2)cn1)c1ncc(F)cn1              nM      2800
2  O=C(Nc1ccc(Cc2ccc(F)c(F)c2)cn1)c1cncc(CO)c1              nM        12

Now for a further compound.
Look up and report measured IC50 for this entry: Cc1cc(C(=O)Nc2ccc(Cc3cc(F)cc(F)c3)cn2)cn(C)c1=O
83
